Some molecules, each annotated with its measured pKi.
# SYSTEM NAME: Low molecular weight protein-tyrosine phosphatase A (Mycobacterium tuberculosis)
# ASSAY NOTES: Inhibition of Mycobacterium tuberculosis recombinant protein tyrosine phosphatase A by Lineweaver-Burke plot analysis
pKi: −log10 of the molar value.

# MOLECULE, pKi
data = [
    ("O=C1CC[C@H](C(=O)O)NC(=O)[C@@H]([C@@H](Nc2ccccc2)c2ccccc2)CN1", 4.44),
    ("C[C@@H]1NC(=O)[C@H](C)NC(=O)[C@H](C)NC(=O)[C@@H]([C@@H](Nc2ccccc2)c2ccccc2)CNC1=O", 3.70),
    ("O=C1CNC(=O)[C@@H]([C@@H](Nc2ccccc2)c2ccccc2)CN1", 3.85),
    ("O=C1CNC(=O)CNC(=O)[C@@H]([C@@H](Nc2ccccc2)c2ccccc2)CN1", 4.07),
    ("O=C1CNC(=O)CNC(=O)[C@@H]([C@@H](Nc2ccccc2)c2ccco2)CN1", 3.67),
    ("C[C@@H]1NC(=O)[C@H](C)NC(=O)[C@@H]([C@@H](Nc2ccccc2)c2ccccc2)CNC1=O", 3.66),
    ("O=C1CNC(=O)[C@H](Cc2ccc(O)cc2)NC(=O)[C@@H]([C@@H](Nc2ccccc2)c2ccccc2)CN1", 5.10),
]

====

# SYSTEM NAME: Low molecular weight protein-tyrosine phosphatase A (Mycobacterium tuberculosis)
# Sequence (whole entry): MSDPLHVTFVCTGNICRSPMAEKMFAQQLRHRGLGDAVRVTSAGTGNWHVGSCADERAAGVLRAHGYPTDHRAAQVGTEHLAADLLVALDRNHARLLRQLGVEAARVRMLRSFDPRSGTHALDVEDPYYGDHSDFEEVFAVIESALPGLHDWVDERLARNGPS
# ASSAY NOTES: Binding affinity to Mycobacterium tuberculosis recombinant protein tyrosine phosphatase A by circular dichroism spectral analysis
ASSAY ENDPOINT: Kb (×10⁴ /M)

# MOLECULE, ASSAY ENDPOINT, REPORTED VALUE
data = [
    ("O=C1CNC(=O)CNC(=O)[C@@H]([C@@H](Nc2ccccc2)c2ccccc2)CN1", "Kb", 4.7),
    ("O=C1CNC(=O)[C@@H]([C@@H](Nc2ccccc2)c2ccccc2)CN1", "Kb", 3.6),
    ("C[C@@H]1NC(=O)[C@H](C)NC(=O)[C@@H]([C@@H](Nc2ccccc2)c2ccccc2)CNC1=O", "Kb", 1.1),
    ("C[C@@H]1NC(=O)[C@H](C)NC(=O)[C@H](C)NC(=O)[C@@H]([C@@H](Nc2ccccc2)c2ccccc2)CNC1=O", "Kb", 3.3),
    ("O=C1CNC(=O)CNC(=O)[C@@H]([C@@H](Nc2ccccc2)c2ccco2)CN1", "Kb", 2.95),
    ("O=C1CC[C@H](C(=O)O)NC(=O)[C@@H]([C@@H](Nc2ccccc2)c2ccccc2)CN1", "Kb", 8.5),
]

====

# SYSTEM NAME: UniProt:P9WIA1
# ASSAY NOTES: Binding affinity to Mycobacterium tuberculosis recombinant protein tyrosine phosphatase A by fluorescence quenching assay

# MOLECULE, Kb
records = [
    ("O=C1CNC(=O)[C@H](Cc2ccc(O)cc2)NC(=O)[C@@H]([C@@H](Nc2ccccc2)c2ccccc2)CN1", "1.5 ×10⁵ /M"),
    ("O=C1CNC(=O)CNC(=O)[C@@H]([C@@H](Nc2ccccc2)c2ccccc2)CN1", "4.87 ×10⁴ /M"),
    ("C[C@@H]1NC(=O)[C@H](C)NC(=O)[C@@H]([C@@H](Nc2ccccc2)c2ccccc2)CNC1=O", "1 ×10⁴ /M"),
    ("O=C1CC[C@H](C(=O)O)NC(=O)[C@@H]([C@@H](Nc2ccccc2)c2ccccc2)CN1", "8.89 ×10⁴ /M"),
    ("O=C1CNC(=O)[C@@H]([C@@H](Nc2ccccc2)c2ccccc2)CN1", "3.41 ×10⁴ /M"),
    ("C[C@@H]1NC(=O)[C@H](C)NC(=O)[C@H](C)NC(=O)[C@@H]([C@@H](Nc2ccccc2)c2ccccc2)CNC1=O", "3.27 ×10⁴ /M"),
    ("O=C1CNC(=O)CNC(=O)[C@@H]([C@@H](Nc2ccccc2)c2ccco2)CN1", "2.99 ×10⁴ /M"),
]

src = ChEMBL document CHEMBL1287755
